All values here come from paper PMC5717224.

compound string	melting point
O=c1c(/C=N\Nc2nc(-c3cccc(Br)c3)cs2)coc2ccccc12	225 to 227 °C
O=c1c(/C=N\Nc2nc(-c3ccc(Br)cc3)cs2)coc2ccccc12	230 to 232 °C
O=c1c(/C=N\Nc2nc(-c3cccc([N+](=O)[O-])c3)cs2)coc2ccccc12	235 to 237 °C
Cc1ccc2occ(/C=N\Nc3nc(-c4ccc(C#N)cc4)cs3)c(=O)c2c1	238 to 240 °C
O=c1c(/C=N\Nc2nc(-c3ccc(-c4ccccc4)cc3)cs2)coc2ccccc12	234 to 236 °C
Cc1ccc2occ(/C=N\Nc3nc(-c4ccc(Br)cc4)cs3)c(=O)c2c1	235 to 237 °C
N#Cc1ccc(-c2csc(N/N=C\c3coc4ccccc4c3=O)n2)cc1	225 to 227 °C
Cc1ccc2occ(/C=N\Nc3nc(-c4ccccc4)cs3)c(=O)c2c1	235 to 237 °C
Cc1ccc2occ(/C=N\Nc3nc(-c4ccc(Cl)cc4Cl)cs3)c(=O)c2c1	245 to 247 °C
Cc1ccc2occ(/C=N\Nc3nc(-c4cccc(O)c4)cs3)c(=O)c2c1	237 to 239 °C
Cc1ccc2occ(/C=N\NC(N)=S)c(=O)c2c1	245 to 247 °C
Cc1ccc2occ(/C=N\Nc3nc(-c4ccc(-c5ccccc5)cc4)cs3)c(=O)c2c1	235 to 237 °C
O=c1c(/C=N\Nc2nc(-c3ccc(Cl)c(Cl)c3)cs2)coc2ccccc12	245 to 247 °C
Cc1ccc2occ(/C=N\Nc3nc(-c4ccc(Cl)c(Cl)c4)cs3)c(=O)c2c1	246 to 248 °C
Cc1ccc2occ(/C=N\Nc3nc(-c4ccc(Cl)cc4)cs3)c(=O)c2c1	245 to 247 °C
O=c1c(/C=N\Nc2nc(-c3ccc(Cl)cc3)cs2)coc2ccccc12	239 to 241 °C
Cc1ccc2occ(/C=N\Nc3nc(-c4cccc(Cl)c4)cs3)c(=O)c2c1	230 to 232 °C
O=c1c(/C=N\Nc2nc(-c3cccc(Cl)c3)cs2)coc2ccccc12	228 to 230 °C
